Target: Abf1 (UniProt P14164)
Sequence: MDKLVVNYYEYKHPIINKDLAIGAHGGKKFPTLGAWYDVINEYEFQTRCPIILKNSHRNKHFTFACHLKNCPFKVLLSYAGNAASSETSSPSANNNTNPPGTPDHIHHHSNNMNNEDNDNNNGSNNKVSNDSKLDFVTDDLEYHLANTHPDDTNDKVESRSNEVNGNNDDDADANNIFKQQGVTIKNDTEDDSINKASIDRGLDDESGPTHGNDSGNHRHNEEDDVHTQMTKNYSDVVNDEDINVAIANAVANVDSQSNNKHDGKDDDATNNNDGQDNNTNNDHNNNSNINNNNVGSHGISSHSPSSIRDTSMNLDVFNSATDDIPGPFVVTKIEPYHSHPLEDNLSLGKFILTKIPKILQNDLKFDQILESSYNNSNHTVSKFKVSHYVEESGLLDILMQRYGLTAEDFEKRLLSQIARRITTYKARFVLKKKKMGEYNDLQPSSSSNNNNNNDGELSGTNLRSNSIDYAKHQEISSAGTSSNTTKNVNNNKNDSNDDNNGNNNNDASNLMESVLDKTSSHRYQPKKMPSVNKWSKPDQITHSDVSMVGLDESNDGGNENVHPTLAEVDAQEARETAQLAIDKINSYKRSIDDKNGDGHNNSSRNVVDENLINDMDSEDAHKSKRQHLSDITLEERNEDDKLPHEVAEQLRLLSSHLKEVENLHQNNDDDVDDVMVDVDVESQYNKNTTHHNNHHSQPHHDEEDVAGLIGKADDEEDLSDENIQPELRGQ
Experiment: PBM E-score (8-mer binding enrichment) (E-score (-0.5 to 0.5)); higher = stronger / more preferred TF binding
Settings: protein concentration: 200 nM; construct: GST-full length
Whole data set: some 33,000 sequences, median “E-score (-0.5 to 0.5)” near -0.015, cut for the highest 2% near 0.3. Many of the other results were omitted from the sample, so the highest values are more common in it than they were.
PBM E-score of 0.3 or higher: satisfied. Under 0.3: not satisfied.

Exam item: API: above_or_equal(metric=PBM E-score, cutoff=0.3) for item GACTGAAA
Marked response: not satisfied

Exam item: Assess whether reported PBM E-score for GACGACGA sits at 0.3 or higher.
Marked response: not satisfied

Exam item: Would you say GACGACAA shows PBM E-score at minimum 0.3?
Marked response: satisfied

Exam item: Hi, just wondering whether ACTCGTGA shows PBM E-score of 0.3 or higher.
Marked response: not satisfied

Exam item: Check the entry CGTACGAC : does PBM E-score equal or exceed 0.3?
Marked response: satisfied

Exam item: Given CTGACATC , state whether its PBM E-score is at least 0.3.
Marked response: not satisfied

Exam item: Given the entry CTTCGTGA , answer whether its PBM E-score meets or surpasses 0.3.
Marked response: satisfied

Exam item: Dear colleague, could you confirm whether GACGACAC has PBM E-score at or above 0.3?
Marked response: not satisfied

Exam item: Assess whether reported PBM E-score for GGTACGAA sits at 0.3 or higher.
Marked response: satisfied

Exam item: Form field: PBM E-score at least 0.3? Entry: GCTCGTGA
Marked response: not satisfied

Exam item: Is the recorded value of PBM E-score equal to or greater than 0.3 for this sequence? CTGATTTA
Marked response: not satisfied

Exam item: PBM E-score >= 0.3 for GGTACGTA ?
Marked response: not satisfied

Exam item: Hi, just wondering whether CTTCGACC shows PBM E-score of 0.3 or higher.
Marked response: not satisfied

Exam item: Could you verify whether the entry AGGACATG shows PBM E-score of no less than 0.3?
Marked response: not satisfied

Exam item: Answer whether PBM E-score of ATTCGTGA is greater than or equal to 0.3.
Marked response: not satisfied

Exam item: Quick check: does AACGACAT have PBM E-score greater than or equal to 0.3?
Marked response: satisfied

Exam item: Form field: PBM E-score at least 0.3? Entry: ATGATGTA
Marked response: not satisfied

Exam item: Check this sequence for PBM E-score at or above 0.3: ATCATTCC
Marked response: not satisfied

Exam item: Please check the record CGTCGTGA and state if its PBM E-score is at or above 0.3.
Marked response: satisfied

Exam item: Hello, I need to know if CCGACATC has measured PBM E-score not below 0.3. Thanks!
Marked response: not satisfied

Exam item: Could you verify whether the entry GTGATTTA shows PBM E-score of no less than 0.3?
Marked response: satisfied

Exam item: Reported PBM E-score at or above 0.3? ACACTGGG
Marked response: not satisfied

Exam item: Determine whether measured PBM E-score meets or exceeds 0.3 for CGTACGAG
Marked response: satisfied

Exam item: Threshold query (PBM E-score >= 0.3) on GTGACACA
Marked response: satisfied

Exam item: # bool: PBM E-score of CGTAGGAG >= 0.3
Marked response: not satisfied

Exam item: Say whether AACGACAC shows PBM E-score of 0.3 or more.
Marked response: not satisfied

Exam item: Does GGGTCATA have a reported PBM E-score of at least 0.3?
Marked response: not satisfied

Exam item: Reported PBM E-score at or above 0.3? GGCGACAA
Marked response: not satisfied

Exam item: Has ATTACGAA a recorded PBM E-score greater than or equal to 0.3?
Marked response: not satisfied

Exam item: Does ATCGCGAA have a reported PBM E-score of at least 0.3?
Marked response: not satisfied

Exam item: Decide: is the reported value of PBM E-score for ATGACACA equal to or greater than 0.3?
Marked response: not satisfied

Exam item: hey, is PBM E-score for this one >= 0.3? AACGACGC
Marked response: not satisfied

Exam item: hey, is PBM E-score for this one >= 0.3? ATGGTACA
Marked response: not satisfied

Exam item: Could you please find out whether AGTACGAG has PBM E-score that meets 0.3 or exceeds it?
Marked response: not satisfied

Exam item: Could you verify whether the entry ATGACATG shows PBM E-score of no less than 0.3?
Marked response: satisfied

Exam item: Check the entry GGTCGTGA : does PBM E-score equal or exceed 0.3?
Marked response: not satisfied

Exam item: PBM E-score >= 0.3 for CCTCGTGA ?
Marked response: satisfied

Exam item: Assess whether reported PBM E-score for AATGGTCC sits at 0.3 or higher.
Marked response: not satisfied

Exam item: Item ATCGCGAT with PBM E-score of 0.3 or above?
Marked response: satisfied

Exam item: Has GTCGCGAA a recorded PBM E-score greater than or equal to 0.3?
Marked response: not satisfied

Exam item: Given the entry AACGACAG , answer whether its PBM E-score meets or surpasses 0.3.
Marked response: not satisfied

Exam item: Given the entry CCACCTGA , answer whether its PBM E-score meets or surpasses 0.3.
Marked response: not satisfied
